# tested-target: T1, recombinant human HER2 (Sino Biological, 10004-H08H) (Homo sapiens, UniProt P04626)
# T1 construct: human epidermal growth factor receptor 2 (HER2), recombinant; also called human epidermal growth factor receptor 2; source: bought: Sino Biological
# experiment: SPR; Biacore T200, 37 °C, pH 7.4, PB-P+ (0.05 mol/L Na-phosphate, 0.15 mol/L NaCl, 0.05% P-20); antibody captured (200 RU) by anti-mouse IgG (Fc) antibody on a CM4 chip; human HER2 as analyte, 6.3-100 nmol/L; 1:1 binding model
# condition-info: both partners purified
endpoint-name: Kd (nM)

| binder | unit-abbrev | test-result |
| --- | --- | --- |
| m4D5 mIgG2a, homodimeric antibody without FAST-Ig mutations (antibody, V domains shown, VH of the original mouse antibody m4D5; mouse IgG2a (mIgG2a) heavy chain constant region; numbers count on: Eu numbering; VL of m4D5; mouse kappa light chain constant region (CL); Whole IgG of one HC and one LC; also called anti-HER2; H1L1H1L1; source: Expi293F, transiently expressed, purified (Ab-Capcher MAG2, MonoSpin ProA or MonoSpin ProG); copies: 2 + 2) VH: QVQLQQSGPELVKPGASLKLSCTASGFNIKDTYIHWVKQRPEQGLEWIGRIYPTNGYTRYDPKFQDKATITADTSSNTAYLQVSRLTSEDTAVYYCSRWGGDGFYAMDYWGQGASVTVSS VL: DIVMTQSHKFMSTSVGDRVSITCKASQDVNTAVAWYQQKPGHSPKLLIYSASFRYTGVPDRFTGSRSGTDFTFTISSVQAEDLAVYYCQQHYTTPPTFGGGTKVEIK | nM | 1.14 |
| m4D5 mIgG1 V1+C19, homodimeric antibody with FAST-Ig V1+C19 mutations (antibody, V domains shown, VH of m4D5; mouse IgG1 (mIgG1) heavy chain constant region; K147 kept; numbers count on: Eu numbering; VL of m4D5; mouse kappa light chain constant region (CL); numbers count on: Kabat numbering; Whole IgG of one HC and one LC; also called anti-HER2; H1L1H1L1; source: Expi293F, transiently expressed, purified (Ab-Capcher MAG2 or MonoSpin ProG); copies: 2 + 2) VH: QVQLQQSGPELVKPGASLKLSCTASGFNIKDTYIHWVKKRPEQGLEWIGRIYPTNGYTRYDPKFQDKATITADTSSNTAYLQVSRLTSEDTAVYYCSRWGGDGFYAMDYWGQGASVTVSS VL: DIVMTQSHKFMSTSVGDRVSITCKASQDVNTAVAWYQEKPGHSPKLLIYSASFRYTGVPDRFTGSRSGTDFTFTISSVQAEDLAVYYCQQHYTTPPTFGGGTKVEIK | nM | 1.27 |
| m2C4 mIgG1, homodimeric antibody without FAST-Ig mutations (antibody, V domains shown, VH of the original mouse antibody m2C4; mouse IgG1 (mIgG1) heavy chain constant region; numbers count on: Eu numbering; VL of the original mouse antibody m2C4; mouse kappa light chain constant region (CL); Whole IgG of one HC and one LC; also called anti-HER2; H1L1H1L1; source: Expi293F, transiently expressed, purified (Ab-Capcher MAG2 or MonoSpin ProG); copies: 2 + 2) VH: EVQLQQSGPELVKPGTSVKISCKASGFTFTDYTMDWVKQSHGKSLEWIGDVNPNSGGSIYNQRFKGKASLTVDRSSRIVYMELRSLTFEDTAVYYCARNLGPSFYFDYWGQGTTLTVSS VL: DTVMTQSHKIMSTSVGDRVSITCKASQDVSIGVAWYQQRPGQSPKLLIYSASYRYTGVPDRFTGSGSGTDFTFTISSVQAEDLAVYYCQQYYIYPYTFGGGTKLEIK | nM | 0.759 |
| m2C4 mIgG1 V1+C19, homodimeric antibody with FAST-Ig V1+C19 mutations (antibody, V domains shown, VH of m2C4; mouse IgG1 (mIgG1) heavy chain constant region; K147 kept; numbers count on: Eu numbering; VL of m2C4; mouse kappa light chain constant region (CL); numbers count on: Kabat numbering; Whole IgG of one HC and one LC; also called anti-HER2; H1L1H1L1; source: Expi293F, transiently expressed, purified (Ab-Capcher MAG2 or MonoSpin ProG); copies: 2 + 2) VH: EVQLQQSGPELVKPGTSVKISCKASGFTFTDYTMDWVKKSHGKSLEWIGDVNPNSGGSIYNQRFKGKASLTVDRSSRIVYMELRSLTFEDTAVYYCARNLGPSFYFDYWGQGTTLTVSS VL: DTVMTQSHKIMSTSVGDRVSITCKASQDVSIGVAWYQERPGQSPKLLIYSASYRYTGVPDRFTGSGSGTDFTFTISSVQAEDLAVYYCQQYYIYPYTFGGGTKLEIK | nM | 0.784 |
| m2C4 mIgG2a V1+C19, homodimeric antibody with FAST-Ig V1+C19 mutations (antibody, V domains shown, VH of m2C4; mouse IgG2a (mIgG2a) heavy chain constant region; K147 kept; numbers count on: Eu numbering; VL of m2C4; mouse kappa light chain constant region (CL); numbers count on: Kabat numbering; Whole IgG of one HC and one LC; also called anti-HER2; H1L1H1L1; source: Expi293F, transiently expressed, purified (Ab-Capcher MAG2, MonoSpin ProA or MonoSpin ProG); copies: 2 + 2) VH: EVQLQQSGPELVKPGTSVKISCKASGFTFTDYTMDWVKKSHGKSLEWIGDVNPNSGGSIYNQRFKGKASLTVDRSSRIVYMELRSLTFEDTAVYYCARNLGPSFYFDYWGQGTTLTVSS VL: DTVMTQSHKIMSTSVGDRVSITCKASQDVSIGVAWYQERPGQSPKLLIYSASYRYTGVPDRFTGSGSGTDFTFTISSVQAEDLAVYYCQQYYIYPYTFGGGTKLEIK | nM | 1.36 |
| m4D5 mIgG2a V1+C19, homodimeric antibody with FAST-Ig V1+C19 mutations (antibody, V domains shown, VH of m4D5; mouse IgG2a (mIgG2a) heavy chain constant region; K147 kept; numbers count on: Eu numbering; VL of m4D5; mouse kappa light chain constant region (CL); numbers count on: Kabat numbering; Whole IgG of one HC and one LC; also called anti-HER2; H1L1H1L1; source: Expi293F, transiently expressed, purified (Ab-Capcher MAG2, MonoSpin ProA or MonoSpin ProG); copies: 2 + 2) VH: QVQLQQSGPELVKPGASLKLSCTASGFNIKDTYIHWVKKRPEQGLEWIGRIYPTNGYTRYDPKFQDKATITADTSSNTAYLQVSRLTSEDTAVYYCSRWGGDGFYAMDYWGQGASVTVSS VL: DIVMTQSHKFMSTSVGDRVSITCKASQDVNTAVAWYQEKPGHSPKLLIYSASFRYTGVPDRFTGSRSGTDFTFTISSVQAEDLAVYYCQQHYTTPPTFGGGTKVEIK | nM | 0.96 |
| m4D5 mIgG1, homodimeric antibody without FAST-Ig mutations (antibody, V domains shown, VH of the original mouse antibody m4D5; mouse IgG1 (mIgG1) heavy chain constant region; numbers count on: Eu numbering; VL of m4D5; mouse kappa light chain constant region (CL); Whole IgG of one HC and one LC; also called anti-HER2; H1L1H1L1; source: Expi293F, transiently expressed, purified (Ab-Capcher MAG2 or MonoSpin ProG); copies: 2 + 2) VH: QVQLQQSGPELVKPGASLKLSCTASGFNIKDTYIHWVKQRPEQGLEWIGRIYPTNGYTRYDPKFQDKATITADTSSNTAYLQVSRLTSEDTAVYYCSRWGGDGFYAMDYWGQGASVTVSS VL: DIVMTQSHKFMSTSVGDRVSITCKASQDVNTAVAWYQQKPGHSPKLLIYSASFRYTGVPDRFTGSRSGTDFTFTISSVQAEDLAVYYCQQHYTTPPTFGGGTKVEIK | nM | 1.03 |
| m2C4 mIgG2a, homodimeric antibody without FAST-Ig mutations (antibody, V domains shown, VH of the original mouse antibody m2C4; mouse IgG2a (mIgG2a) heavy chain constant region; numbers count on: Eu numbering; VL of the original mouse antibody m2C4; mouse kappa light chain constant region (CL); Whole IgG of one HC and one LC; also called anti-HER2; H1L1H1L1; source: Expi293F, transiently expressed, purified (Ab-Capcher MAG2, MonoSpin ProA or MonoSpin ProG); copies: 2 + 2) VH: EVQLQQSGPELVKPGTSVKISCKASGFTFTDYTMDWVKQSHGKSLEWIGDVNPNSGGSIYNQRFKGKASLTVDRSSRIVYMELRSLTFEDTAVYYCARNLGPSFYFDYWGQGTTLTVSS VL: DTVMTQSHKIMSTSVGDRVSITCKASQDVSIGVAWYQQRPGQSPKLLIYSASYRYTGVPDRFTGSGSGTDFTFTISSVQAEDLAVYYCQQYYIYPYTFGGGTKLEIK | nM | 1.08 |

Taken from paper PMC10801562.
